Property: pKi; scope: individual compounds
biological target: UniProtKB P29274; assay: Displacement of [3H]NECA from human recombinant adenosine 2A receptor expressed in CHO cells after 3 hrs
Sequence (P29274 whole entry): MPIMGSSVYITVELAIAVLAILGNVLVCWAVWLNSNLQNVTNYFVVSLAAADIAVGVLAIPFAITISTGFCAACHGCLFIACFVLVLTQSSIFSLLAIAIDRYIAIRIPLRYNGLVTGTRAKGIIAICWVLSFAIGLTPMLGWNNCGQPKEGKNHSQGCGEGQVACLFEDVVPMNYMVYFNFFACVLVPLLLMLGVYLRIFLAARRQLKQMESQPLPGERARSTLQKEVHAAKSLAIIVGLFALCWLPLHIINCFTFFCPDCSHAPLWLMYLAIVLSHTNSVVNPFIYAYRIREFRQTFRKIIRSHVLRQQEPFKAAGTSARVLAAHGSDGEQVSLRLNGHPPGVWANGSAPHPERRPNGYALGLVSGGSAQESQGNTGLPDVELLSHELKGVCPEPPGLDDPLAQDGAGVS
Quick note: pKi means taking -log10 of the concentration in moles per liter.

Some compounds with known pKi results, for comparison:
{"columns": ["mol_smiles", "target_desc", "measured_value"],
 "data": [
  ["O=C(Nc1nc2nn(CCc3ccccc3)cc2c2nc(-c3ccc(F)cc3)nn12)c1ccccc1", "UniProtKB P29274", 5.39],
  ["COc1ccc(NC(=O)Nc2nc3nn(C)cc3c3nc(-c4ccc(Br)cc4)nn23)cc1", "UniProtKB P29274", 5.08],
  ["O=C(Cc1ccccc1)Nc1nc2nn(CCc3ccccc3)cc2c2nc(-c3ccc(Cl)cc3)nn12", "UniProtKB P29274", 5.51],
  ["Cn1cc2c(nc(NC(=O)Nc3ccccc3)n3nc(-c4ccc(Br)cc4)nc23)n1", "UniProtKB P29274", 5.63]
]}

Next up:
Prompt: # get_value(readout='pKi', item= `Cn1cc2c(nc(NC(=O)Nc3ccccc3)n3nc(-c4ccc(C(F)(F)F)cc4)nc23)n1` )
Completion: 4.44

* * *

Property: Ratio Ki; scope: individual compounds
species on record: Homo sapiens; test: Selectivity ratio of Ki for human recombinant adenosine 2a receptor to Ki for human recombinant adenosine A3 receptor

Some compounds with known Ratio Ki results, for comparison:
{"columns": ["mol_smiles", "Ratio Ki"],
 "data": [
  ["Cn1cc2c(nc(N)n3nc(-c4ccc(-c5ccccc5)cc4)nc23)n1", "> 204"],
  ["Cn1cc2c(nc(NC(=O)Nc3ccc(F)cc3)n3nc(-c4ccc(C(F)(F)F)cc4)nc23)n1", "> 15700"],
  ["COc1ccc(NC(=O)Nc2nc3nn(C)cc3c3nc(-c4ccc(C(F)(F)F)cc4)nn23)cc1", "> 42400"],
  ["Cn1cc2c(nc(NC(=O)Nc3ccccc3)n3nc(-c4ccc(-c5ccccc5)cc4)nc23)n1", "> 5090"]
]}

Next up:
Prompt: # get_value(readout='Ratio Ki', item= `Cn1cc2c(nc(NC(=O)Nc3ccc(F)cc3)n3nc(-c4ccc(-c5ccccc5)cc4)nc23)n1` )
Completion: > 24600
